test system: Erwinia amylovora PMV6076; test: Antibacterial activity (MIC), growth inhibition in microtiter plates; assay type: cell-based; details: Trypticase Soy Broth, 25 °C, 48 h, OD 600 nm (Bioscreen C), peptides at 3.1, 6.2, 12.5, 25, 50 μM, three replicates, experiment repeated twice, MIC = lowest concentration with no growth
Peptide text beside a SMILES is read from it.
measure: MIC Intervals, Ea

Q: May I ask what MIC Intervals, Ea has been recorded for CC(C)C[C@@H]1NC(=O)[C@H](CCCCN)NC(=O)[C@H](CCC(N)=O)NC(=O)[C@H](CCCCN)NC(=O)[C@H](CCCCN)NC(=O)[C@H](CC(C)C)NC(=O)[C@H](Cc2ccccc2)NC(=O)[C@H](CCCCN)NC(=O)[C@H](CCCCN)NC(=O)[C@H](CCCCN)NC1=O [BPC914] (cyclo(FLKKQKLKKK)) ?
A: >50 µM

Q: May I ask what MIC Intervals, Ea has been recorded for CC(C)C[C@@H]1NC(=O)[C@H](CCC(N)=O)NC(=O)[C@H](CC(C)C)NC(=O)[C@H](CCCCN)NC(=O)[C@H](CCCCN)NC(=O)[C@H](CCCCN)NC(=O)[C@H](CCCCN)NC(=O)[C@H](Cc2ccccc2)NC(=O)[C@H](CCCCN)NC(=O)[C@H](CCCCN)NC1=O [BPC496] (cyclo(FKKKKLQLKK)) ?
A: >50 µM
